System: mice
Test: Observation of behaviour and death rate in mice (Irwin method)
Assay type: in vivo
Settings: male mice, 1000 mg/kg per os, 4 animals/dose; n.e. = no effect
Method: The observation of normal behaviour in mice was conducted following the method by S. Irwin, Psychopharmacologia 13, 222 ( 1968). This method allows alterations of some behavioural, neurophysiological and neurovegetative parameters directly detectable by the experimenter to be visualized. […]

compound.smiles: C[N+](C)(C)C[C@H](O)CC(=O)OC/C=C1\OC(=O)c2ccccc21
SYMPTOMS: convulsion, salivation
//
compound.smiles: CCC(=O)O[C@H](CC(=O)OC/C=C1\OC(=O)c2cc(Cl)ccc21)C[N+](C)(C)C
SYMPTOMS: salivation
//
compound.smiles: CC(C)CC(=O)O[C@H](CC(=O)OC/C=C1\OC(=O)c2ccccc21)C[N+](C)(C)C
SYMPTOMS: convulsion, salivation
//
compound.smiles: CC(=O)O[C@H](CC(=O)OC/C=C1\OC(=O)c2cc(Cl)ccc21)C[N+](C)(C)C
SYMPTOMS: salivation
//
compound.smiles: CC(C)C(=O)O[C@H](CC(=O)OC/C=C1\OC(=O)c2ccccc21)C[N+](C)(C)C
SYMPTOMS: n.e.

---

system: mice; assay: Observation of behaviour and death rate in mice (Irwin method); type: in vivo; conditions: mouse, in vivo, 600 mg/kg
quantity.name: DEATH RATE

compound: C[N+](C)(C)C[C@H](O)CC(=O)OC/C=C1\OC(=O)c2ccccc21 [ST 736]
data.value: 0/4

compound: CC(C)C(=O)O[C@H](CC(=O)OC/C=C1\OC(=O)c2cc(Cl)ccc21)C[N+](C)(C)C [ST 806]
data.value: 0/4

compound: CC(=O)O[C@H](CC(=O)OC/C=C1\OC(=O)c2cc(Cl)ccc21)C[N+](C)(C)C [ST 804]
data.value: 0/4

---

The entries below come with measured DEATH RATE values attached.
system: mice; assay: Observation of behaviour and death rate in mice (Irwin method); assay type: in vivo; conditions: mouse, in vivo, 1000 mg/kg

compound.smiles: C[N+](C)(C)C[C@H](O)CC(=O)OC/C=C1\OC(=O)c2cc(Cl)ccc21
target.under.test: mice
DEATH RATE: 0/4
--
compound.smiles: CC(=O)O[C@H](CC(=O)OC/C=C1\OC(=O)c2ccccc21)C[N+](C)(C)C
target.under.test: mice
DEATH RATE: 2/4
--
compound.smiles: CC(=O)O[C@H](CC(=O)OC/C=C1\OC(=O)c2cc(Cl)ccc21)C[N+](C)(C)C
target.under.test: mice
DEATH RATE: 1/4
--
compound.smiles: CCC(=O)O[C@H](CC(=O)OC/C=C1\OC(=O)c2ccccc21)C[N+](C)(C)C
target.under.test: mice
DEATH RATE: 1/4
--
compound.smiles: CC(C)C(=O)O[C@H](CC(=O)OC/C=C1\OC(=O)c2cc(Cl)ccc21)C[N+](C)(C)C
target.under.test: mice
DEATH RATE: 1/4
--
compound.smiles: CC(C)CC(=O)O[C@H](CC(=O)OC/C=C1\OC(=O)c2cc(Cl)ccc21)C[N+](C)(C)C
target.under.test: mice
DEATH RATE: 0/4
--
compound.smiles: CC(C)C(=O)O[C@H](CC(=O)OC/C=C1\OC(=O)c2ccccc21)C[N+](C)(C)C
target.under.test: mice
DEATH RATE: 0/4
--
compound.smiles: CC(C)CC(=O)O[C@H](CC(=O)OC/C=C1\OC(=O)c2ccccc21)C[N+](C)(C)C
target.under.test: mice
DEATH RATE: 2/4
--
compound.smiles: C[N+](C)(C)C[C@H](O)CC(=O)OC/C=C1\OC(=O)c2ccccc21
target.under.test: mice
DEATH RATE: 3/4
--
compound.smiles: CCC(=O)O[C@H](CC(=O)OC/C=C1\OC(=O)c2cc(Cl)ccc21)C[N+](C)(C)C
target.under.test: mice
DEATH RATE: 1/4

---

test system: mice; assay: Observation of behaviour and death rate in mice (Irwin method); type: in vivo; settings: male mice, 1000 mg/kg per os, 4 animals/dose; n.e. = no effect

compound.smiles: CC(=O)O[C@H](CC(=O)OC/C=C1\OC(=O)c2ccccc21)C[N+](C)(C)C
SYMPTOMS: jerks
--
compound.smiles: CC(C)C(=O)O[C@H](CC(=O)OC/C=C1\OC(=O)c2cc(Cl)ccc21)C[N+](C)(C)C
SYMPTOMS: salivation
--
compound.smiles: C[N+](C)(C)C[C@H](O)CC(=O)OC/C=C1\OC(=O)c2cc(Cl)ccc21
SYMPTOMS: salivation

---

target: PAF (platelet activating factor) receptors (Oryctolagus cuniculus); construct: Blood was drawn via indracardiac puncture from male rabbits; experiment: Binding to PAF receptors (3H-PAF displacement in rabbit platelets); details: 50% inhibiting concentration of specific receptor binding, 3H-PAF 0.5 nM, 30 minutes at 25°C
Sequence (G1TEI7 1-342): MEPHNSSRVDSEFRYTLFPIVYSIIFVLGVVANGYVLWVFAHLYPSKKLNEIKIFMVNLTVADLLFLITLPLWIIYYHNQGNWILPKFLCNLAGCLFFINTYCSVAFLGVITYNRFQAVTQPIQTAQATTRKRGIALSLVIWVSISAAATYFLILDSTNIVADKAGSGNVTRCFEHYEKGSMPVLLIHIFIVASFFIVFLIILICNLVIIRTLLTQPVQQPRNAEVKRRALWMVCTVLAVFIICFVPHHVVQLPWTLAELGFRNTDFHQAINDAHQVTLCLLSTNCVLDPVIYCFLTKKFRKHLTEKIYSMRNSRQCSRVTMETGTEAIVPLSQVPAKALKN

compound.smiles: CC(=O)O[C@H](CC(=O)OC/C=C1\OC(=O)c2cc(Cl)ccc21)C[N+](C)(C)C
target.under.test: PAF (platelet activating factor) receptors (Oryctolagus cuniculus)
unit.of.measure: µM
IC50: 0.019
--
compound.smiles: C[N+](C)(C)C[C@H](O)CC(=O)OC/C=C1\OC(=O)c2ccccc21
target.under.test: PAF (platelet activating factor) receptors (Oryctolagus cuniculus)
unit.of.measure: µM
IC50: 9.3
--
compound.smiles: CC(C)C(=O)O[C@H](CC(=O)OC/C=C1\OC(=O)c2ccccc21)C[N+](C)(C)C
target.under.test: PAF (platelet activating factor) receptors (Oryctolagus cuniculus)
unit.of.measure: µM
IC50: 2
--
compound.smiles: CC(C)CC(=O)O[C@H](CC(=O)OC/C=C1\OC(=O)c2cc(Cl)ccc21)C[N+](C)(C)C
target.under.test: PAF (platelet activating factor) receptors (Oryctolagus cuniculus)
unit.of.measure: µM
IC50: 0.0066
--
compound.smiles: C[N+](C)(C)C[C@H](O)CC(=O)OC/C=C1\OC(=O)c2cc(Cl)ccc21
target.under.test: PAF (platelet activating factor) receptors (Oryctolagus cuniculus)
unit.of.measure: µM
IC50: 0.02
--
compound.smiles: CCC(=O)O[C@H](CC(=O)OC/C=C1\OC(=O)c2ccccc21)C[N+](C)(C)C
target.under.test: PAF (platelet activating factor) receptors (Oryctolagus cuniculus)
unit.of.measure: µM
IC50: 6.7
--
compound.smiles: CC(C)CC(=O)O[C@H](CC(=O)OC/C=C1\OC(=O)c2ccccc21)C[N+](C)(C)C
target.under.test: PAF (platelet activating factor) receptors (Oryctolagus cuniculus)
unit.of.measure: µM
IC50: 3.6
--
compound.smiles: CCC(=O)O[C@H](CC(=O)OC/C=C1\OC(=O)c2cc(Cl)ccc21)C[N+](C)(C)C
target.under.test: PAF (platelet activating factor) receptors (Oryctolagus cuniculus)
unit.of.measure: µM
IC50: 0.022
--
compound.smiles: CC(=O)O[C@H](CC(=O)OC/C=C1\OC(=O)c2ccccc21)C[N+](C)(C)C
target.under.test: PAF (platelet activating factor) receptors (Oryctolagus cuniculus)
unit.of.measure: µM
IC50: 5.3
--
compound.smiles: CC(C)C(=O)O[C@H](CC(=O)OC/C=C1\OC(=O)c2cc(Cl)ccc21)C[N+](C)(C)C
target.under.test: PAF (platelet activating factor) receptors (Oryctolagus cuniculus)
unit.of.measure: µM
IC50: 0.018

---

tested on: mice; experiment: Observation of behaviour and death rate in mice (Irwin method); type: in vivo; details: male mice, 600 mg/kg per os, 4 animals/dose; n.e. = no effect

molecule: CC(=O)O[C@H](CC(=O)OC/C=C1\OC(=O)c2ccccc21)C[N+](C)(C)C [ST 739]
target.under.test: mice
SYMPTOMS: n.e.
//
molecule: CC(C)CC(=O)O[C@H](CC(=O)OC/C=C1\OC(=O)c2ccccc21)C[N+](C)(C)C [ST 776]
target.under.test: mice
SYMPTOMS: n.e.
//
molecule: C[N+](C)(C)C[C@H](O)CC(=O)OC/C=C1\OC(=O)c2ccccc21 [ST 736]
target.under.test: mice
SYMPTOMS: n.e.
//
molecule: CCC(=O)O[C@H](CC(=O)OC/C=C1\OC(=O)c2ccccc21)C[N+](C)(C)C [ST 768]
target.under.test: mice
SYMPTOMS: n.e.
//
molecule: CCC(=O)O[C@H](CC(=O)OC/C=C1\OC(=O)c2cc(Cl)ccc21)C[N+](C)(C)C [ST 805]
target.under.test: mice
SYMPTOMS: salivation
//
molecule: CC(=O)O[C@H](CC(=O)OC/C=C1\OC(=O)c2cc(Cl)ccc21)C[N+](C)(C)C [ST 804]
target.under.test: mice
SYMPTOMS: salivation
//
molecule: CC(C)C(=O)O[C@H](CC(=O)OC/C=C1\OC(=O)c2cc(Cl)ccc21)C[N+](C)(C)C [ST 806]
target.under.test: mice
SYMPTOMS: salivation
